Target: human GST-CLK1 (Homo sapiens)
Construct: purified human GST-CLK1 (129-end, SignalChem) enzyme; purchased SignalChem
Sequence (P49759 129-484 limits assumed): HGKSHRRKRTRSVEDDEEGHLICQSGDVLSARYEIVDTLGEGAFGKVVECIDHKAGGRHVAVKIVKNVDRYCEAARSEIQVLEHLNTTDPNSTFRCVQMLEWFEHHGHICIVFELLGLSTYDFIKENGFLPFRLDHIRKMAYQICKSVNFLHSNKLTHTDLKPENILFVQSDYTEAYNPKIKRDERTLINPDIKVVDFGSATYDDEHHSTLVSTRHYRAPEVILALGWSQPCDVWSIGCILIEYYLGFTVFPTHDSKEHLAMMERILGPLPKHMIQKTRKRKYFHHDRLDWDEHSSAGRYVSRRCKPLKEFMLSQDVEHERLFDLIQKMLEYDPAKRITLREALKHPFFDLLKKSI
Assay: GST-CLK1 enzyme inhibition, ADP-Glo kinase assay
Format: biochemical
Details: ATP 10 μM, GST-CLK1 129-end
pIC50: −log10 of the molar value.
READOUT LABEL: pIC50

[[record]]
compound = "CCNc1nc(Nc2ccc(C(=O)N3CC(CO)(CO)C3)c3c2OCCO3)nc2[nH]cc(C#N)c12 [Example 326]"
target_entity = "human GST-CLK1 (Homo sapiens)"
result = "> 7.00"

[[record]]
compound = "CCNc1nc(Nc2ccc(P(C)(C)=O)cc2OC)nc2[nH]cc(C#N)c12 [Example 252]"
target_entity = "human GST-CLK1 (Homo sapiens)"
result = "6.00 to 6.52"

[[record]]
compound = "COc1cc(S(C)(=O)=O)ccc1Nc1nc(NC(C)C)c2cc[nH]c2n1 [Example 14, 2,2,2-trifluoroacetate]"
target_entity = "human GST-CLK1 (Homo sapiens)"
result = "6.00 to 6.52"


INPUT: Give pIC50 for this entry on human GST-CLK1 (Homo sapiens): COc1cc(S(C)(=O)=O)ccc1Nc1nc(NC2CCC2)c2cc[nH]c2n1 [Example 24]
OUTPUT: 6.00 to 6.52

INPUT: Give pIC50 for this entry on human GST-CLK1 (Homo sapiens): COc1cc(P2(=O)CCN(C3COC3)CC2)ccc1Nc1nc(NC(C)C)c2c(C#N)c[nH]c2n1 [Example 293]
OUTPUT: > 7.00
